Target: Retinoic acid receptor alpha (Homo sapiens)
Assay: ATG_DR5_RAR_CIS: Attagene CIS-FACTORIAL HepG2 Assay for human Retinoic Acid Receptor Alpha (RARE), DR5 submotif (AID 2282934)
Details: HepG2 Attagene cis-factorial RARE DR5 reporter, mRNA; actives raise or lower the signal
Active and inactive are the calls of the source. The calls were made as follows: active = hit-call score of the fitted dose curve at least 0.9, where 1 is the maximum; inactive = score below 0.9.
Outcome codes: active, inactive

INSERT INTO measurements (molecule, system, label_class) VALUES
  ('CC(=O)c1ccccn1', 'Retinoic acid receptor alpha (Homo sapiens)', 'inactive'),
  ('CCCCSCCCC', 'Retinoic acid receptor alpha (Homo sapiens)', 'inactive'),
  ('CCCC(C)=O', 'Retinoic acid receptor alpha (Homo sapiens)', 'inactive'),
  ('c1ccc2cc(Nc3ccc(Nc4ccc5ccccc5c4)cc3)ccc2c1', 'Retinoic acid receptor alpha (Homo sapiens)', 'inactive'),
  ('CCO/C=C1\N=C(c2ccccc2)OC1=O', 'Retinoic acid receptor alpha (Homo sapiens)', 'inactive'),
  ('COCCOCCOCCO', 'Retinoic acid receptor alpha (Homo sapiens)', 'inactive'),
  ('CCCCCCCCN1CCCC1=O', 'Retinoic acid receptor alpha (Homo sapiens)', 'inactive'),
  ('O=P(O)(O)O', 'Retinoic acid receptor alpha (Homo sapiens)', 'inactive'),
  ('CCCCCCCCCCCCCC(=O)OCC(O)CO (centres undefined)', 'Retinoic acid receptor alpha (Homo sapiens)', 'inactive'),
  ('Oc1c(Cl)cc(Cl)c(Cl)c1Cc1c(O)c(Cl)cc(Cl)c1Cl', 'Retinoic acid receptor alpha (Homo sapiens)', 'active'),
  ('CC(C)CCCCCCCCCCCCCCC(=O)O', 'Retinoic acid receptor alpha (Homo sapiens)', 'active'),
  ('CCCCC1(COC(=O)CCC(=O)O)C(=O)N(c2ccccc2)N(c2ccccc2)C1=O', 'Retinoic acid receptor alpha (Homo sapiens)', 'inactive'),
  ('O=C(c1ccccc1)C(O)c1ccccc1 (centres undefined)', 'Retinoic acid receptor alpha (Homo sapiens)', 'inactive'),
  ('CC(C)=CCCC(C)CC(=O)O (centres undefined)', 'Retinoic acid receptor alpha (Homo sapiens)', 'inactive'),
  ('CC1CCC(C(C)C)C(O)C1 (centres undefined)', 'Retinoic acid receptor alpha (Homo sapiens)', 'inactive'),
  ('CCC1CCCCC1', 'Retinoic acid receptor alpha (Homo sapiens)', 'inactive'),
  ('C=Cc1ccc(C(C)(C)C)cc1', 'Retinoic acid receptor alpha (Homo sapiens)', 'active'),
  ('COc1cc(CCC(C)=O)ccc1O', 'Retinoic acid receptor alpha (Homo sapiens)', 'inactive'),
  ('COc1ccc(OC)c(N=Nc2c(O)ccc3ccccc23)c1', 'Retinoic acid receptor alpha (Homo sapiens)', 'inactive'),
  ('CC(=O)C(C)O (centres undefined)', 'Retinoic acid receptor alpha (Homo sapiens)', 'inactive'),
  ('N[C@@H](Cc1cc(I)c(Oc2cc(I)c(O)c(I)c2)c(I)c1)C(=O)O', 'Retinoic acid receptor alpha (Homo sapiens)', 'inactive'),
  ('C[C@H](CCC(=O)NCC(=O)O)[C@H]1CC[C@H]2[C@@H]3[C@H](O)C[C@@H]4C[C@H](O)CC[C@]4(C)[C@H]3C[C@H](O)[C@]12C', 'Retinoic acid receptor alpha (Homo sapiens)', 'inactive'),
  ('OCc1cccc(Oc2ccccc2)c1', 'Retinoic acid receptor alpha (Homo sapiens)', 'inactive'),
  ('CCCC(=O)OC(C)(C)Cc1ccccc1', 'Retinoic acid receptor alpha (Homo sapiens)', 'inactive'),
  ('Cc1occc(=O)c1OC(=O)C(C)C', 'Retinoic acid receptor alpha (Homo sapiens)', 'inactive'),
  ('CCOC(=O)CN', 'Retinoic acid receptor alpha (Homo sapiens)', 'inactive'),
  ('Cc1cc(=O)oc2cc(N(C)C)ccc12', 'Retinoic acid receptor alpha (Homo sapiens)', 'inactive'),
  ('Cc1cc(S(=O)(=O)O)ccc1N=Nc1c(O)ccc2ccccc12', 'Retinoic acid receptor alpha (Homo sapiens)', 'inactive'),
  ('CC(C)(C)C1=CC(=O)C(C(C)(C)C)=CC1=O', 'Retinoic acid receptor alpha (Homo sapiens)', 'active');
